biological target: huPD-L1 (Homo sapiens, UniProt Q9NZQ7); test: Flow binding to CHO cells stably expressing PD-L1; design: huCTLA4 and huPD-L1, full-length mammalian surface expression constructs were generated; expressed in transfected cells; host or cells: CHO cells, lentiviral transduction, sorted to >98% purity; details: Table E23; CD80 IgV-Fc (inert) at 33.3 nM; CHO cells stably expressing PD-L1
Sequence (Q9NZQ7 19-290): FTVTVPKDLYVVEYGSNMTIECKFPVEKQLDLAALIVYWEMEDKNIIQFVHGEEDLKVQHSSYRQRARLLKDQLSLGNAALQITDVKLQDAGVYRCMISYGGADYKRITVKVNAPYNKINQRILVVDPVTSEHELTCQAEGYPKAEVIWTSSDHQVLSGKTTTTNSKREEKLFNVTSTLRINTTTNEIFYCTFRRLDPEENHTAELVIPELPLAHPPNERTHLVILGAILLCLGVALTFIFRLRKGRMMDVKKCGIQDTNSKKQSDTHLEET
Below: a set of entries, each annotated with reported PD-L1 MFI at 33.3 nM.

molecule | PD-L1 MFI at 33.3 nM
H18C/A26P/E35D/M47L/V68M/A71G (protein, UniProt P33681 35-288, looked up, variant H18C A26P E35D M47L V68M A71G) T-lymphocyte activation …: VIHVTKEVKEVATLSCGCNVSVEELPQTRIYWQKDKKMVLTMMSGDLNIWPEYKNRTIFDITNNLSIMILGLRPSDEGTYECVVLKYEKDAFKREHLAEVTLSVKADFPTPSISDFEIPTSNIRRIICSTSGGFPEPHLSWLENGEELNAINTTVSQDPETELYAVSSKLDFNMTTNHSFMCLIKYGHLRVNQTFNWNTTKQEHFPDNLLPSWAITLISVNGIFVICCLTYCFAPRCRERRRNERLRRESVRPV | 67010
H18V/A26P/E35D/M47L/V68M/A71G (protein, UniProt P33681 35-288, looked up, variant H18V A26P E35D M47L V68M A71G) T-lymphocyte activation …: VIHVTKEVKEVATLSCGVNVSVEELPQTRIYWQKDKKMVLTMMSGDLNIWPEYKNRTIFDITNNLSIMILGLRPSDEGTYECVVLKYEKDAFKREHLAEVTLSVKADFPTPSISDFEIPTSNIRRIICSTSGGFPEPHLSWLENGEELNAINTTVSQDPETELYAVSSKLDFNMTTNHSFMCLIKYGHLRVNQTFNWNTTKQEHFPDNLLPSWAITLISVNGIFVICCLTYCFAPRCRERRRNERLRRESVRPV | 52405
H18R/A26P/E35D/D46N/M47V/V68M/A71G/D90P (protein, UniProt P33681 35-288, looked up, variant H18R A26P E35D D46N M47V V68M A71G D90P, Fc fusion) T-lymphocyte activation …: VIHVTKEVKEVATLSCGRNVSVEELPQTRIYWQKDKKMVLTMMSGNVNIWPEYKNRTIFDITNNLSIMILGLRPSDEGTYECVVLKYEKPAFKREHLAEVTLSVKADFPTPSISDFEIPTSNIRRIICSTSGGFPEPHLSWLENGEELNAINTTVSQDPETELYAVSSKLDFNMTTNHSFMCLIKYGHLRVNQTFNWNTTKQEHFPDNLLPSWAITLISVNGIFVICCLTYCFAPRCRERRRNERLRRESVRPV | 29306
H18Y/A26P/E35D/M471/V68M/A71G (protein) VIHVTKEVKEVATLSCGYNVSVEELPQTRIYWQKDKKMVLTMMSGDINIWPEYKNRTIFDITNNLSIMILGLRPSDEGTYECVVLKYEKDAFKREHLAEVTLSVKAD | 54482
H18V/A26P/E35D/M47V/V68L/A71G (protein, UniProt P33681 35-288, looked up, variant H18V A26P E35D M47V V68L A71G) T-lymphocyte activation …: VIHVTKEVKEVATLSCGVNVSVEELPQTRIYWQKDKKMVLTMMSGDVNIWPEYKNRTIFDITNNLSILILGLRPSDEGTYECVVLKYEKDAFKREHLAEVTLSVKADFPTPSISDFEIPTSNIRRIICSTSGGFPEPHLSWLENGEELNAINTTVSQDPETELYAVSSKLDFNMTTNHSFMCLIKYGHLRVNQTFNWNTTKQEHFPDNLLPSWAITLISVNGIFVICCLTYCFAPRCRERRRNERLRRESVRPV | 55417
